# test_method_notes: inhibitors of TNFa-induced NFkB p65 translocation, primary screen, imaging, HUVEC, MLSMR starter and 10KST1 sets (AID 438);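 further: compound added about 3h40 before a 20 min TNFalpha stimulation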
# condition_parameters: HUVEC TNFa-induced p65 nuclear translocation; measured here: nuclei count (cytotoxicity indicator), at 2.08 µM
measurement_kind: cell count
Give your answer as a number; write no unit.

CCCc1cn(S(=O)(=O)c2ccc(OC)cc2OC)nc1N
364
CC1CC(C)CN(CC(=O)Nc2ccc(S(N)(=O)=O)cc2)C1 (stereo unspecified)
368
CCc1ccc(C2CC(c3cccc(OC)c3)n3nc(N)nc3N2)cc1 (stereo unspecified)
528

Query molecule follows.
# get_value(readout='cell count', item= O=C(Nc1ccccc1C(=O)NCC1CCCO1)c1ccco1 (stereo unspecified) )
304

====

# test_method_notes: blockers of RIG-like receptor reporter activation – cell-based, Sendai virus stimulus, luciferase, 10K MLSCN set, TLR/RLR signaling modifier project, primary screen (AID 602276);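 further: firefly luciferase from ISG56 promoter only with Renilla not read in this screen; 0% = Sendai virus plus DMSO and 100% = medium plus DMSO without virus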
# condition_parameters: HEK293 RL24 IRF3 luciferase reporter, at 10 µM, stronger effect = higher value
The source made the active and inactive calls.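 The calls were made as follows: active = inhibition at or above 50% at 10 µM; inactive = inhibition below 50%.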
Quick reference: inhibition of the listed items.

# get_value(readout='inhibition', item= COc1ccc(C(=O)OC(COc2ccccc2)Cn2ccnc2)cc1 (stereo unspecified) )
-15.3% (inactive)

====

# test_method_notes: endothelial E-selectin expression blockers – imaging, HUVEC, immunofluorescence, MLSMR starter and 10KST1 sets, primary screen (AID 487);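 on nuclei count: 100% = median nuclei count of all wells on the same plate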
# condition_parameters: HUVEC TNFalpha-induced E-selectin immunofluorescence imaging, at 2 µM; measured here: cell number, toxicity
measurement_kind: nuclei count (%)
Please respond with the number in % and leave the unit unwritten.

Observe how each entry below is paired with its result.
CCCn1c(SCC(=O)N2CCc3ccccc3C2)nc2c1c(=O)n(C)c(=O)n2C
117
O=C(CSc1nc2cc(Cl)ccc2s1)N1CCN(C(=O)c2ccco2)CC1
141
O=C(Nc1ccc(SC(F)F)cc1)c1ccc2nccnc2c1
95
CC(Sc1n[nH]c(=O)[nH]c1=O)C(=O)OCc1ccccc1 (stereo not drawn)
116
COc1ccc(NC(=O)Cn2nnc(-c3ccccc3F)n2)cc1Cl
107

# get_value(readout='nuclei count', item= Cc1c[nH]c2cccc(OCC(O)CNC(C)(C)C)c12 (stereo not drawn) )
123

# get_value(readout='nuclei count', item= Cc1ccc(Cn2c(=O)c3ccccc3n3c(CCC(=O)O)nnc23)cc1 )
116

# get_value(readout='nuclei count', item= O=C(Nc1nc(-c2ccccc2)cs1)C1CCCCN1S(=O)(=O)c1ccccc1 (stereo not drawn) )
96.2

# get_value(readout='nuclei count', item= Cc1cc(C)cc(NC(=O)c2nnn(Cc3cc(C)ccc3C)c2N)c1 )
125

# get_value(readout='nuclei count', item= COc1ccc(C(c2sc3nc(C)nn3c2O)N2CCCCC2)cc1 (stereo not drawn) )
108

# get_value(readout='nuclei count', item= COc1ccc(/C=N/O)cc1COc1ccc(NC(C)=O)cc1 )
64.4

# get_value(readout='nuclei count', item= CCOC(=O)N1CCC(n2c(SCC(=O)NCc3ccco3)nc3ccsc3c2=O)CC1 )
118

# get_value(readout='nuclei count', item= Cc1oc2c(CN3CCCC3)c(O)ccc2c(=O)c1-c1ccccc1 )
97.7

# get_value(readout='nuclei count', item= CC(=O)Nc1ccc(NC(=O)c2cc(C)nn2-c2ccccc2)cc1 )
129

# get_value(readout='nuclei count', item= Cn1c(=O)oc2cc(S(=O)(=O)N3CCCC(C(=O)NCC4COc5ccccc5O4)C3)ccc21 (stereo not drawn) )
124

# get_value(readout='nuclei count', item= Cn1c(-c2ccccc2)c(CCO)c2ccccc21 )
152

# get_value(readout='nuclei count', item= Clc1ccc(Cn2ncc3c(NCc4cccnc4)ncnc32)cc1 )
82

# get_value(readout='nuclei count', item= COc1ccc(NC(=O)N2CCC(O)(c3cccnc3)CC2)c(OC)c1 )
145

====

# test_method_notes: endothelial E-selectin expression blockers – imaging, HUVEC, immunofluorescence, MLSMR starter and 10KST1 sets, primary screen (AID 487);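 on inhibition: signal is fraction of cell area covered by stained E-selectin grains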
# condition_parameters: HUVEC TNFalpha-induced E-selectin immunofluorescence imaging, at 2 µM; stronger effect = higher value
# if value of inhibition reaches -40%, tag 1; if it stays below, tag 0

COc1cc(C(=O)N2CCN(C(=O)CC(C)C)CC2)cc(OC)c1OC
0
CCOc1nc(-c2ccccc2O)nc2ccccc12
0
Cc1[nH]c2ccccc2c(=O)c1CN(C)Cc1ccccc1
0
Cn1c(CSc2nc3ccccc3s2)nnc1SCC(=O)NCCN1CCOCC1
1
CC1(C)CC(=O)CC(C)(C)N1OC(=O)c1ccccn1
1

Next, consider the following compound.
Would you say O=C(O)C1CC(=O)N(Cc2ccccc2)C1 (stereo unspecified) shows inhibition at minimum -40%?
0

====

# test_method_notes: reduction of polyQ htt aggregates in cells – imaging, exon1htt(103Q)mCFP cells, high-content imaging, primary screen (AID 483);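 further: compound exposure lasted 3 days before fixation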
# condition_parameters: exon1htt(103Q)mCFP cell line, aggregate imaging, at 2 µM; stronger effect = higher value
# if value of inhibition of aggregation reaches 10%, tag Y; if it stays below, tag N

Past entries and their recorded results:
Cc1cc(C)nc(-n2nc(C)cc2NC(=O)c2ccc(Br)o2)n1
Y
COc1ccccc1NC(=O)N1CCN(c2cccc(C(F)(F)F)c2)CC1
Y
O=S(=O)(Cc1ccccc1)N1CCN(Cc2ccccc2)CC1
Y

Would you say CCOc1ccccc1-n1c(SCC(=O)NCc2ccco2)nnc1-c1ccncc1 shows inhibition of aggregation at minimum 10%?
N

====

# test_method_notes: TLR3 IRF3 reporter activation blockers – cell-based, poly I:C stimulus, luciferase, 10K MLSCN set, primary screen (AID 602277)
# condition_parameters: HEK293-TLR3 RL24 IRF3 luciferase reporter, at 10 µM, stronger effect = higher value
Quick reference: inhibition of the listed items.
Please respond with the number in % and leave the unit unwritten.

Observe how each entry below is paired with its result.
CC(C)CCNC(=O)CCNS(=O)(=O)c1ccc(Cl)cc1
25.9
CCCCOC(=O)C1=C(C)Nc2ncnn2C1c1cccc(OC)c1OC (configuration not stated)
9.22
COc1ccccc1N1CCN(c2nc3ccccc3nc2C(C#N)C(=O)OC(C)C)CC1 (configuration not stated)
-6.25
Nc1nc(Nc2ccc(Cl)cc2Cl)nc(C(F)(F)F)n1
-84.9
COc1ccc2c(C(F)(F)F)cc(=O)oc2c1C
11.3

# get_value(readout='inhibition', item= CCOC(=O)C1CCCN(C(=O)c2cc(=O)c3ccccc3o2)C1 (configuration not stated) )
19.9

# get_value(readout='inhibition', item= C=CCSc1nnc(-c2ccc(Cl)cc2Cl)o1 )
-58.3

# get_value(readout='inhibition', item= O=C(CSc1nnc(-c2ccccc2)o1)N1CCc2ccccc2C1 )
22.9

# get_value(readout='inhibition', item= OCc1nc2ccccc2n1CCCOc1ccccc1 )
-119

# get_value(readout='inhibition', item= O=c1c2cnn(-c3ccccc3)c2ncn1/N=C/c1ccncc1 )
11.3

# get_value(readout='inhibition', item= Cn1cnc2c(N3CCCCC3)nccc21 )
22.8

# get_value(readout='inhibition', item= Cn1nnnc1SCSc1nnnn1C )
-3.07

====

# test_method_notes: endothelial E-selectin expression blockers – imaging, HUVEC, immunofluorescence, MLSMR starter and 10KST1 sets, primary screen (AID 487);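 on nuclei count: 100% = median nuclei count of all wells on the same plate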
# condition_parameters: HUVEC TNFalpha-induced E-selectin immunofluorescence imaging, at 2 µM; measured here: cell number, toxicity
Quick reference: nuclei count of the listed items.
# output: number + unit

Observe how each entry below is paired with its result.
CCOc1cc(C2NC(=O)N(C)C(C)=C2C(=O)OC)cc(Br)c1O (stereo unspecified)
104%
CC1(C)CC(=O)C(C=NCc2ccc3c(c2)OCO3)=C(O)C1
93.7%

# get_value(readout='nuclei count', item= COC(=O)c1cc2ccsc2n1CC(=O)N(C)c1ccccc1 )
92.2%

# get_value(readout='nuclei count', item= CC(C)(C)n1ncc2c(=O)n(CC(=O)NCc3ccco3)cnc21 )
112%

# get_value(readout='nuclei count', item= Cc1[nH]c(=O)[nH]c(=O)c1S(=O)(=O)N1CCCC(C(=O)NCc2ccco2)C1 (stereo unspecified) )
106%

# get_value(readout='nuclei count', item= O=C(N1CCN(c2ccccc2F)CC1)C12CC3CC(CC(C3)C1)C2 )
95%

====

Quick reference: inhibition of the listed items.
# test_method_notes: TLR3 IRF3 reporter activation blockers – cell-based, poly I:C stimulus, luciferase, 10K MLSCN set, primary screen (AID 602277)
# condition_parameters: HEK293-TLR3 RL24 IRF3 luciferase reporter, at 10 µM, stronger effect = higher value
Calls of active or inactive are those of the source.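 How the source made its calls: active means inhibition of the reporter signal at or above 50%; inactive means inhibition below 50%.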

O=C(Nc1ccccc1)N(CCCN1CCOCC1)Cc1cc2cc3c(cc2[nH]c1=O)OCCO3
8.69% (inactive)

# get_value(readout='inhibition', item= Cc1ccc2c(c1)-c1c(cnn1CC(=O)Nc1ccccc1N1CCN(C)CC1)CO2 )
7.29% (inactive)

# get_value(readout='inhibition', item= O=C(Nc1nc(-c2ccccc2)cs1)C1CCCCN1S(=O)(=O)c1ccccc1 (stereo not given) )
1.39% (inactive)

# get_value(readout='inhibition', item= CCC1Cc2c(nc3c4c(nc(N5CCOCC5)c(C#N)c24)NC(C)=N3)O1 (stereo not given) )
1.06% (inactive)

# get_value(readout='inhibition', item= CCCNC(=O)C1CCN(S(=O)(=O)c2ccc3nc4c(c(C(=O)O)c3c2)CCCCC4)CC1 )
12.8% (inactive)

// data source = PubChem BioAssay
